test system: MALME-3M melanoma; experiment: NCI-60 one-dose screen, 48 h (100 = growth as untreated, 0 = no growth, -100 = all killed); details: 10 µM unless noted
The panel holds about 83,000 compounds, 20% with a hit somewhere; the sample as a whole holds those more often.
Measurement Label: growth (%)
Give bare numbers, in %.

Some solved cases for reference:
Compound: O=C(NCCNc1nccc(-n2ccc3cccnc32)n1)c1ccc(C(F)(F)F)cc1
growth (%): 108

Compound: COc1ccc(/C=C/c2c(C(C)=O)c(C)nc3ccccc23)cc1
growth (%): 101

Compound: CC(=O)c1cc2c(N)c(C(=O)Nc3cccc4c3OCCO4)sc2nc1C
growth (%): 101

Compound: COc1cc(C2NN=C3c4ccccc4CCC32)cc(OC)c1OC (stereo not given)
growth (%): 48.6

Compound: Cc1c(C(=O)/C=C/c2csc3ccccc23)[n+](=O)c2ccccc2n1[O-]
growth (%): 125

Compound: CSc1nc2c(c(=O)[nH]1)C(c1ccc(C)cc1)C=C(C(=O)O)N2 (stereo not given)
growth (%): 98.8

Record growth per entry; entries follow.
1. COc1ccc(C(=O)c2cc(OC)c3c(c2)OCO3)cc1O
2. COc1ccc(/C=C\c2cc(OC)c(OC)c(OC)c2)cc1OC(=O)c1cccc(Cn2cc(CCOC(=O)c3cccc(Cn4nnc5c4C(=O)c4ccccc4C5=O)c3)nn2)c1
3. O=C(/C=C\c1cccc([N+](=O)[O-])c1)/C=C/c1cccc([N+](=O)[O-])c1
4. Nc1nc(-c2ccccc2)c(CCCOc2ccc(NC(=O)CBr)cc2)c(=O)[nH]1
5. CO[C@H]1NC(=O)N(S(=O)(=O)c2ccc(Cl)cc2)[C@@H]1OC
6. OB(O)c1cccc(-c2nc3ccc4[nH]ncc4c3c3c2CCCC3)c1F
7. O=C1NN(C(=O)c2ccc(Cl)cc2)C(c2ccccc2)=N/C1=C\c1cn(-c2ccccc2)nc1-c1ccccc1

Ans.
1: 50.7; 2: 41.5; 3: 110; 4: 123; 5: 101; 6: 120; 7: 77.7

====

system: RXF 393 renal; assay: NCI-60 one-dose screen, 48 h (100 = growth as untreated, 0 = no growth, -100 = all killed); conditions: 10 µM unless noted
About 83,000 compounds went through this panel and 20% of them were active in at least one assay; those are over-represented in the sample as a whole.
I'd appreciate it if you marked entries Satisfied when growth is lower than 80% and Not satisfied when it is not.

A selection of reference data follows.
Compound: Cc1nn(-c2ccc(Cl)cc2)c2ncnc(N/N=C/c3cccc([N+](=O)[O-])c3)c12
Group Label: Not satisfied

Compound: CCC1=CCC[C@@]2(C)CCC[C@@]3(C)CCCC(C)(C)[C@]1([O-])[O+]32
Group Label: Not satisfied

Compound: COc1ccc(-c2ccc(-c3ccc(C(=N)N)s3)s2)cc1Cl
Group Label: Satisfied

Qu. Item FC(F)(F)c1cccc(-c2cn3c(ccc4ccccc43)n2)c1 : growth beneath 80%, strictly?
Ans. Not satisfied

Qu. Item O=C(O)COc1ccc(-c2cssc2=S)cc1 : growth beneath 80%, strictly?
Ans. Not satisfied

Qu. Item OC(c1cc2cc(Br)ccc2c2cc(Br)ccc12)C1CCCCN1 (stereo not drawn) : growth beneath 80%, strictly?
Ans. Satisfied

Qu. Item COc1ccc(/C=C2\N=C(c3ccccc3)N(C(=O)c3ccccc3O)NC2=O)cc1 : growth beneath 80%, strictly?
Ans. Not satisfied

Qu. Item COc1ccc(CCNC2=CC(=O)CCC2)cc1OC : growth beneath 80%, strictly?
Ans. Not satisfied

Qu. Item C=CCn1c2ccccc2c2c3c(c4c5ccccc5n(CC=C)c4c21)C(=O)N(O)C3=O : growth beneath 80%, strictly?
Ans. Satisfied

Qu. Item COc1cc(-c2nn(-c3cccc(NC(=O)Nc4ccc(Cl)c(C(F)(F)F)c4)c3)cc2-c2ccncc2)ccc1Cl : growth beneath 80%, strictly?
Ans. Satisfied

Qu. Item CCN(CC)CCCNc1nccc2ccc(Cl)cc12 : growth beneath 80%, strictly?
Ans. Not satisfied

Qu. Item COc1ccc(Nc2[nH]n3c(=O)cc(-c4ccccc4)nc3c2C(=O)Nc2ccc(C)cc2)c(OC)c1 : growth beneath 80%, strictly?
Ans. Not satisfied

Qu. Item O=C(C1=Cc2cc3ccccc3n2Cc2cnnn21)c1ccccc1 : growth beneath 80%, strictly?
Ans. Satisfied
